Test: Cmax in BALB/c mouse at 10 mg/kg, po measured upto 8 hrs by LC-MS-MS analysis
Format: ADME, organism-based
Details: in vivo
MEASURED QUANTITY: Cmax (µM)
Answers are plain numbers, in µM.

Input: So what does the record say about Cmax for Cc1ccc2nc(NCCN)c3ncc(C)n3c2c1 ?
Output: 1.6

###

Assay: Half life in BALB/c mouse at 2 mg/kg, iv measured upto 8 hrs by LC-MS-MS analysis
Assay type: ADME, organism-based
Conditions: in vivo
MEASURED QUANTITY: half-life (h)
Give bare numbers, in h.

Input: So what does the record say about half-life for Cc1ccc2nc(NCCN)c3ncc(C)n3c2c1 ?
Output: 2.2
